Attribution: patent US20080207526A1

Provide the reported affinity determined by competition with biotinylated competitor of each item.
- assayed_system: T1, recombinant water-soluble HLA-DR4 (DRA/DRB1*0401) (human)
- T1 chain 1: not shown
- T1 chain 2: not shown
Form entry: value (µM) — number only.

[ask] Return affinity determined by competition with biotinylated competitor for the following binder: KEAYAAAAAAKAAAA (modifications not checked) [peptide SEQ ID NO: 10]
[reply] 4.5

[ask] Return affinity determined by competition with biotinylated competitor for the following binder: AKKYEAAAAAAAAAA (modifications not checked) [peptide SEQ ID NO: 21]
[reply] 2.2

[ask] Return affinity determined by competition with biotinylated competitor for the following binder: EAAYAAAAAAKAAAA (modifications not checked) [peptide SEQ ID NO: 16]
[reply] 5

[ask] Return affinity determined by competition with biotinylated competitor for the following binder: AKYAEAAAAAAAAAA (modifications not checked) [peptide SEQ ID NO: 36]
[reply] 3

[ask] Return affinity determined by competition with biotinylated competitor for the following binder: EKAYAAAAAAKAAAA (modifications not checked) [peptide SEQ ID NO: 13]
[reply] 3.3

[ask] Return affinity determined by competition with biotinylated competitor for the following binder: AEYAKAAAAAAAAAA (modifications not checked) [peptide SEQ ID NO: 32]
[reply] 3

[ask] Return affinity determined by competition with biotinylated competitor for the following binder: AAEYAAAAAAKAAAA (modifications not checked) [peptide SEQ ID NO: 12]
[reply] 3.2

[ask] Return affinity determined by competition with biotinylated competitor for the following binder: AAKYAEAAAAKAAAA (modifications not checked) [peptide SEQ ID NO: 15]
[reply] 1.8

[ask] Return affinity determined by competition with biotinylated competitor for the following binder: AYKAEAAAAAAAAAA (modifications not checked) [peptide SEQ ID NO: 35]
[reply] 1.3

[ask] Return affinity determined by competition with biotinylated competitor for the following binder: EKKYAAAAAAKAAAA (modifications not checked) [peptide SEQ ID NO: 17]
[reply] 1.8

[ask] Return affinity determined by competition with biotinylated competitor for the following binder: AAAYAAAAAAKAAAA (modifications not checked) [peptide SEQ ID NO: 5]
[reply] 7

[ask] Return affinity determined by competition with biotinylated competitor for the following binder: EAKYAAAAAAKAAAA (modifications not checked) [peptide SEQ ID NO: 18]
[reply] 4.4

[ask] Return affinity determined by competition with biotinylated competitor for the following binder: AAEYKAAAAAAAAAA (modifications not checked) [peptide SEQ ID NO: 26]
[reply] 1.8

[ask] Return affinity determined by competition with biotinylated competitor for the following binder: AKEYAAAAAAKAAAA (modifications not checked) [peptide SEQ ID NO: 7]
[reply] 4.5

[ask] Return affinity determined by competition with biotinylated competitor for the following binder: AAKYEAAAAAKAAAA (modifications not checked) [peptide SEQ ID NO: 14]
[reply] 4
